Test system: Human respirovirus 3
experimental_details: Antiviral activity against Parainfluenza 3 virus in african green monkey Vero cells assessed as reduction of virus-induced cytopathogenicity
Type: functional
Quick reference for MIC among some compounds
property_measured: MIC

compound=CCNC(=S)Nc1ccc(-c2n[nH]c(=S)n2-c2ccccc2)cc1 property_measured=MIC observed_result="> 80 µg/mL"
compound=C=CCNC(=S)Nc1ccc(-c2n[nH]c(=S)n2CC)cc1 property_measured=MIC observed_result="> 80 µg/mL"
compound=CCNC(=S)Nc1ccc(OCc2n[nH]c(=S)n2C)cc1 property_measured=MIC observed_result="> 80 µg/mL"
compound=C=CCn1c(COc2ccc(NC(=S)Nc3ccccc3)cc2)n[nH]c1=S property_measured=MIC observed_result="> 16 µg/mL"
compound="O=c1[nH]c(=O)n([C@H]2C[C@H](O)[C@@H](CO)O2)cc1/C=C/Br [BRIVUDINE]" property_measured=MIC observed_result="> 400 µg/mL"
compound=CCNC(=S)Nc1ccc(OCc2n[nH]c(=S)n2-c2ccccc2)cc1 property_measured=MIC observed_result="> 80 µg/mL"
compound=CNC(=S)Nc1ccc(OCc2n[nH]c(=S)n2C)cc1 property_measured=MIC observed_result="> 80 µg/mL"
compound=C=CCNC(=S)Nc1ccc(OCc2n[nH]c(=S)n2CC=C)cc1 property_measured=MIC observed_result="> 80 µg/mL"
compound=C=CCNC(=S)Nc1ccc(-c2n[nH]c(=S)n2CCc2ccccc2)cc1 property_measured=MIC observed_result="> 80 µg/mL"
compound=S=C(Nc1ccccc1)Nc1ccc(-c2n[nH]c(=S)n2-c2ccccc2)cc1 property_measured=MIC observed_result="> 16 µg/mL"
compound=CNC(=S)Nc1ccc(-c2n[nH]c(=S)n2-c2ccccc2)cc1 property_measured=MIC observed_result="> 80 µg/mL"
compound=CCCCCCNC(=S)Nc1ccc(-c2n[nH]c(=S)n2-c2ccccc2)cc1 property_measured=MIC observed_result="> 80 µg/mL"
compound=Cn1c(COc2ccc(N)cc2)n[nH]c1=S property_measured=MIC observed_result="> 3.2 µg/mL"
compound=Cn1c(-c2ccc(NC(=S)Nc3ccccc3)cc2)n[nH]c1=S property_measured=MIC observed_result="> 80 µg/mL"
compound=C=CCNC(=S)Nc1ccc(-c2nnc(SCc3ccc(Cl)cc3Cl)n2-c2ccccc2)cc1 property_measured=MIC observed_result="> 16 µg/mL"
compound=CCCCCCNC(=S)Nc1ccc(-c2n[nH]c(=S)n2CCCCCC)cc1 property_measured=MIC observed_result="> 3.2 µg/mL"
compound=C=CCNC(=S)Nc1ccc(OCc2n[nH]c(=S)n2-c2ccccc2)cc1 property_measured=MIC observed_result="> 80 µg/mL"
compound=C=CCNC(=S)Nc1ccc(-c2nnc(SCc3ccc(Cl)cc3Cl)n2C)cc1 property_measured=MIC observed_result="> 16 µg/mL"
compound=C=CCNC(=S)Nc1ccc(OCc2n[nH]c(=S)n2C)cc1 property_measured=MIC observed_result="> 80 µg/mL"
compound=C=CCNC(=S)Nc1ccc(-c2n[nH]c(=S)n2CCCCCC)cc1 property_measured=MIC observed_result="> 16 µg/mL"
compound=CCNC(=S)Nc1ccc(OCc2n[nH]c(=S)n2CC)cc1 property_measured=MIC observed_result="> 80 µg/mL"
compound=CCCCCCNC(=S)Nc1ccc(-c2n[nH]c(=S)n2CC)cc1 property_measured=MIC observed_result="> 80 µg/mL"
